# study-target: α7 nicotinic acetylcholine receptor (α7nAChR) (Mus musculus)
# Construct: native receptor in hippocampal CA1 pyramidal cells (slices)
# Sequence (P49582 23-502): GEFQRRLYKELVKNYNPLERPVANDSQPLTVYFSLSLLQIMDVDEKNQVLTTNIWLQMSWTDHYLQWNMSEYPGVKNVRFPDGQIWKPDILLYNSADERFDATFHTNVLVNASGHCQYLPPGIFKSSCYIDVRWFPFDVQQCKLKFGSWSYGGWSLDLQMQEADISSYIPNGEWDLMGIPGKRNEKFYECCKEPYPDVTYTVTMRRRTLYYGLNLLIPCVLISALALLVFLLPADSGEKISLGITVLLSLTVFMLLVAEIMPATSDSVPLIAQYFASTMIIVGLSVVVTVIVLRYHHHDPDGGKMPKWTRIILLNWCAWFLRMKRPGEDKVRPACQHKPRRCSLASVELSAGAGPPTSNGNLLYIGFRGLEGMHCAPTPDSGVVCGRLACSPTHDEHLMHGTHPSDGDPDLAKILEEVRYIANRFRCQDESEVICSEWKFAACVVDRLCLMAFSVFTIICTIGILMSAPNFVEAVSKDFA
# assay: whole-cell patch-clamp of ACh-evoked currents in mouse hippocampal slices, dose-response
pEC50: −log10 of the molar value.

compound: CC(=O)OCC[N+](C)(C)C [ACh, acetylcholine]
pEC50: 3.93
